Examples of compounds with documented HEK293T Cytotoxicity, half-maximal cytotoxicity concentration follow.
Test system: HEK293T cells
Assay: HEK293T cytotoxicity
Details: HEK293T cells
RECORDED METRIC: HEK293T Cytotoxicity, half-maximal cytotoxicity concentration

>  <COMPOUND>
CC[C@H](C)[C@@H]1NC(=O)CNC(=O)c2csc(n2)[C@H](C(C)(C)O)OC(=O)C(C)(C)[C@H](CCCC(C)(Cl)Cl)OC(=O)c2csc1n2

>  <ENDPOINT VALUE>
19 µM

$$$$
>  <COMPOUND>
CO[C@@H]1[C@@H](OC)[C@H](C)O[C@@H](O[C@@H]2C[C@H]3O[C@@](O)(C2)[C@H](C)C(=O)O[C@@H](/C=C/C=C/Br)C[C@@H](C)/C=C\C[C@H](O)[C@@H]3C)[C@@H]1OC [Compound 5, lyngbyaloside]

>  <ENDPOINT VALUE>
>13 µM

$$$$
>  <COMPOUND>
CO[C@@H]1[C@@H](OC)[C@H](C)O[C@@H](O[C@@H]2C[C@@H]3CC[C@H](C)[C@@H](O)C[C@](C)(CC/C=C/C=C/Br)OC(=O)C[C@](O)(C2)O3)[C@@H]1OC [Compound 4, 18E-lyngbyaloside C]

>  <ENDPOINT VALUE>
>31 µM

$$$$
>  <COMPOUND>
O=C1C(O)=C([C@H]2CC[C@H](c3ccc(Cl)cc3)CC2)C(=O)c2ccccc21 [Atovaquone, reference compound]

>  <ENDPOINT VALUE>
>2.0 µM

$$$$
>  <COMPOUND>
CCCCCC1NC(=O)c2csc(n2)C(C)NC(=O)C(Cc2ccc(OC)cc2)N(C)C(=O)C(Cc2ccc(OC)cc2)N(C)C(=O)C(C(C)C)NC(=O)C1C (stereo not drawn) [Compound 1, kakeromamide B]

>  <ENDPOINT VALUE>
>23 µM

$$$$
>  <COMPOUND>
CCC[C@H]1NC(=O)c2csc(n2)[C@H](C)NC(=O)[C@H](C(C)C)N(C)C(=O)[C@H](Cc2ccccc2)N(C)C(=O)[C@H](C)OC(=O)[C@@H]1C [Compound 2, ulongamide A]

>  <ENDPOINT VALUE>
>4.8 µM

$$$$
